protocol summary: AP1 Signaling Pathway (AID 357);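 further: ME-180 reporter cells stimulated with EGF at its EC50 level; on the % scale 0 is the no-effect control and ±100 the full control effect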
condition set: ME-180 (cervical carcinoma) AP-1-bla reporter, EGF-induced, beta-lactamase ratio, 5 h; at 7.69 µM (top of the series) unless noted
Records with an inconclusive call do not appear.
attribute measured: activity change, negative = inhibition (%)
Lab book: enter the figure in %, no units written.

>>> value("Cc1nc2cnc(Nc3ccccc3)nc2n(Cc2ccc(F)cc2)c1=O")
-12.8

Documented activity change, negative = inhibition of `O=C(c1cc(C(F)(F)F)cc(C(F)(F)F)c1)N1CCC[C@@]2(CCN(Cc3ccncc3)C2)C1` : -6.9

Kindly note the recorded activity change, negative = inhibition for `COCC(=O)N1CCC[C@@]2(CCN(C(=O)Nc3ccc(OC)cc3)C2)C1` , which is -7.62

// `CC(=O)NCCNc1nc(-c2cccnc2)nc2ccccc12` : activity change, negative = inhibition value = 5.7

###

protocol summary: NFAT Signaling Pathway (AID 444);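 further: carbachol stimulus at about its EC50 of 1 µM final; on the % scale 0 is the no-effect control and ±100 the full control effect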
condition set: Jurkat NFAT-bla M1, carbachol, beta-lactamase ratio, 5 h; at 7.69 µM (top of the series) unless noted
Procedure: NCGC Assay Overview: The nuclear factor of activated T cells (NFAT) family of transcription factors has been found primarily in most immune system cells and some other non-immune cells. NFAT plays the immunomodulatory role, primarily in T-cell activation and differentiation. […] NCGC Assay Protocol Summary: The cells were prepared in RPMI 1640 medium containing 0.1% dialyzed FBS and 25 mM HEPES at 1.6 x 10^6cell/ml. […] The %Activity was determined from the ratio of 460nm/530nm. […]
Inconclusive results are not listed.
attribute measured: activity change, negative = inhibition (%)
Number only, in %; omit the unit.

Some compounds with known activity change, negative = inhibition results, for comparison:
>>> value("O=C(c1cnccn1)N1CCC2(CCN(Cc3nccs3)CC2)CC1")
9.93
>>> value("O=C(c1csnn1)N1CCC2(CC1)CN(C(c1ccccc1)c1ccccc1)C2")
-2.37
>>> value("CCNc1ncc2ncc(=O)n(Cc3cccs3)c2n1")
-8.48

Attention now shifts to the item below.
activity change, negative = inhibition reading for `Cn1c(=O)cnc2cnc(OCc3ccccc3)nc21` : 0.699

###

protocol summary: Quantitative high throughput screen for delayed death inhibitors of the malarial parasite plastid, 48 hour incubation (AID 488752); further: nearly all actives have a fitted effect of over 65% in size
condition set: Plasmodium falciparum growth; series mostly up to 28.7 µM
Records with an inconclusive call do not appear. The source made the active and inactive calls. Calls come from the whole dose curve; as a rule, active = well fitted inhibition curve with a large enough effect; inconclusive = small, poorly fitted or top-dose-only effect, or effect the other way; inactive = flat fitted curve, though single readings scatter.
# output must be one of active, inactive

>>> discrete_label("CC(=O)NCCc1ccc(O)c(O)c1")
"inactive"
>>> discrete_label("CN(C)C1C(=O)C(C(N)=O)=C(O)[C@@]2(O)C(=O)C3=C(O)c4c(O)ccc(Cl)c4[C@@H](O)C3C[C@@H]12 (stereo partly specified)")
"active"
>>> discrete_label("N.N.N.N.N.N.N.N.N.N.N.N.N.N.O.O.[Cl-].[Cl-].[Cl-].[Cl-].[Cl-].[Cl-].[Ru].[Ru].[Ru]")
"inactive"
>>> discrete_label("O=[N+]([O-])c1ccc(CSc2ncnc3c2ncn3[C@@H]2O[C@H](CO)[C@H](O)[C@H]2O)cc1")
"inactive"
>>> discrete_label("OC[C@H]1O[C@@H](n2cnc3c(NC4CCCC4)ncnc32)[C@H](O)[C@H]1O")
"inactive"

Query block: Hi, do you know how `N[C@H](Cc1ccc(O)c(O)c1)C(=O)O` came out in this test?
Result block: inactive

Query block: Check the results log: what was the call for C[C@]12CCC(=O)C=C1CC[C@@H]1C2[C@@H](O)C[C@@]2(C)[C@H]1CC[C@]2(O)C(=O)CO (stereo partly specified) ?
Result block: inactive

Query block: Per the assay record, what outcome was assigned to `O=C(O)CC[C@H](NC(=O)c1ccccc1C(=O)O)C(=O)O` ?
Result block: inactive

Query block: Hey, what did the test say about `CSc1nc(N)c2ncn([C@@H]3O[C@H](COP(=O)(O)OP(=O)(O)O)[C@H](O)[C@H]3O)c2n1` ?
Result block: inactive

Query block: What outcome does the record of this test show for `Nc1ncnc2c1ncn2[C@@H]1O[C@H](CO)[C@H](O)[C@H]1O` ?
Result block: inactive
